target: panel of 442 kinases (Homo sapiens, UniProt O14757); construct: purchased Ambit Biosciences (scanMAXX KINOMEscan); assay: biochemical; type: binding; details: CHEK1; 1 µM; read-out: % of control at 1 µM
Sequence (O14757 whole entry): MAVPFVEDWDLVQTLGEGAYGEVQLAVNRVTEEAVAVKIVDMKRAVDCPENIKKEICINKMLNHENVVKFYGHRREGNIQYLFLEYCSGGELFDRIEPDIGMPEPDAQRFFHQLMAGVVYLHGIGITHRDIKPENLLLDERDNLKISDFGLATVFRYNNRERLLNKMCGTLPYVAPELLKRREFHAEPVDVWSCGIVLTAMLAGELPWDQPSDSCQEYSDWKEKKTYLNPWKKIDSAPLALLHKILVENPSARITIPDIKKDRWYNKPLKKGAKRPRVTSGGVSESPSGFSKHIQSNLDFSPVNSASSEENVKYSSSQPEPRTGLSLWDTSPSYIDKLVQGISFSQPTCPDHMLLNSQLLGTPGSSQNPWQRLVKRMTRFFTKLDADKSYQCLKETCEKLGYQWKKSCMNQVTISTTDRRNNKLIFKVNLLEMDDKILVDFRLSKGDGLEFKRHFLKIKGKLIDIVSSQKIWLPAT
ENDPOINT_LABEL: remaining activity at 1 µM (%)
Numbers only, in %.

Recorded results for 3 compounds are shown here.
compound="Nc1cc(C(F)(F)F)c(-c2cc(N3CCOCC3)nc(N3CCOCC3)n2)cn1 [Buparlisib]" obs_value=79
compound="Cn1c(=O)n(-c2ccc(C(C)(C)C#N)cc2)c2c3cc(-c4cnc5ccccc5c4)ccc3ncc21 [Dactolisib]" obs_value=100
compound="FC(F)c1nc2ccccc2n1-c1nc(N2CCOCC2)nc(N2CCOCC2)n1 [ZSTK474]" obs_value=92

Kindly consider the entry below.
Prompt: Return reported remaining activity at 1 µM; argument: COc1ncc(-c2ccc3nccc(-c4ccnnc4)c3c2)cc1NS(=O)(=O)c1ccc(F)cc1F [Omipalisib]
Response: 100

* * *

Give measured remaining activity at 1 µM for each item. Keep answers brief.
target: panel of 442 kinases (Homo sapiens, UniProt Q2M2I8); construct: purchased Ambit Biosciences (scanMAXX KINOMEscan); assay: biochemical; assay type: binding; settings: AAK1; 1 µM; read-out: % of control at 1 µM
Numbers only, in %.

smiles_code=FC(F)c1nc2ccccc2n1-c1nc(N2CCOCC2)nc(N2CCOCC2)n1 unit_name=% obs_value=100
smiles_code=Cn1c(=O)n(-c2ccc(C(C)(C)C#N)cc2)c2c3cc(-c4cnc5ccccc5c4)ccc3ncc21 unit_name=% obs_value=84
smiles_code=Nc1cc(C(F)(F)F)c(-c2cc(N3CCOCC3)nc(N3CCOCC3)n2)cn1 unit_name=% obs_value=97

Kindly consider the entry below.
Prompt: Return reported remaining activity at 1 µM; argument: COc1ncc(-c2ccc3nccc(-c4ccnnc4)c3c2)cc1NS(=O)(=O)c1ccc(F)cc1F
Response: 66

* * *

Give measured remaining activity at 1 µM for each item. Keep answers brief.
molecular target: panel of 442 kinases (Homo sapiens, UniProt P27448); construct: purchased Ambit Biosciences (scanMAXX KINOMEscan); assay: biochemical; format: binding; conditions: kinase MARK3; 1 µM; read-out: % of control at 1 µM
Sequence (P27448 whole entry): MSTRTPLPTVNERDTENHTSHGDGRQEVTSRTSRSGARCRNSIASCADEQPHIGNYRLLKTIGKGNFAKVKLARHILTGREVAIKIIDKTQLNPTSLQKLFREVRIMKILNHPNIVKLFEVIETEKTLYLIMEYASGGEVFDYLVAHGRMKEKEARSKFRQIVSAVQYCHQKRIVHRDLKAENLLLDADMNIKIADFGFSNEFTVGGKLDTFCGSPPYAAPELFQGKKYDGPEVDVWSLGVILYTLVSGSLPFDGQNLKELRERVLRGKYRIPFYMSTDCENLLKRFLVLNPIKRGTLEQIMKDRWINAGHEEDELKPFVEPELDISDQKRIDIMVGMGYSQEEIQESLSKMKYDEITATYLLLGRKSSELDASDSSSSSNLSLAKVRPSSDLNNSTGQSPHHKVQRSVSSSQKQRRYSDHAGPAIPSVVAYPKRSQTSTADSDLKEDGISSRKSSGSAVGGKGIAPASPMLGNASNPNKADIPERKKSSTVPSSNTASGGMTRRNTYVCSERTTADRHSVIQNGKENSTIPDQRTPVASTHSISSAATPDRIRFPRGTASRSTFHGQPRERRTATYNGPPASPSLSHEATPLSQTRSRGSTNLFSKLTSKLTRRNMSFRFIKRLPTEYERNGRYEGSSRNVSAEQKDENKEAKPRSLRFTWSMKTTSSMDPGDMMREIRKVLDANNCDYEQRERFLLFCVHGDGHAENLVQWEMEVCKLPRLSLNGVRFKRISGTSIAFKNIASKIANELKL
Give bare numbers, in %.

Provide the reported remaining activity at 1 µM of each entry below, same order.
1. Cn1c(=O)n(-c2ccc(C(C)(C)C#N)cc2)c2c3cc(-c4cnc5ccccc5c4)ccc3ncc21
2. FC(F)c1nc2ccccc2n1-c1nc(N2CCOCC2)nc(N2CCOCC2)n1
3. COc1ncc(-c2ccc3nccc(-c4ccnnc4)c3c2)cc1NS(=O)(=O)c1ccc(F)cc1F
4. Nc1cc(C(F)(F)F)c(-c2cc(N3CCOCC3)nc(N3CCOCC3)n2)cn1

Response:
1: 100; 2: 100; 3: 100; 4: 97

* * *

Biological target: panel of 442 kinases (Homo sapiens)
Construct: purchased Ambit Biosciences (scanMAXX KINOMEscan)
Sequence (Q04771 21-509): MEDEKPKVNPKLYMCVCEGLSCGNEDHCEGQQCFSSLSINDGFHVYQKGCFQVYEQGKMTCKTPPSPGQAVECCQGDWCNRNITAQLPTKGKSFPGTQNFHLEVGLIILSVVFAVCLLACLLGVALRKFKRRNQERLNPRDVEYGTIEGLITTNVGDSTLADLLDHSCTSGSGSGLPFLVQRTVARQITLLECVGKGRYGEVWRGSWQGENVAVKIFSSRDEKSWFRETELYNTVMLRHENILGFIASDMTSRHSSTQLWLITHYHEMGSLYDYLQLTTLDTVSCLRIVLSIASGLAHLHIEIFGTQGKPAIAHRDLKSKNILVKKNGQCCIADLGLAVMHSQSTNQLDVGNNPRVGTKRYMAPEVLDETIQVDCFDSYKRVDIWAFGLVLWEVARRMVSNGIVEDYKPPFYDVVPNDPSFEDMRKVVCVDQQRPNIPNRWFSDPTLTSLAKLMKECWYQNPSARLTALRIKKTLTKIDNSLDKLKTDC
Assay: biochemical
Format: binding
Settings: ACVR1; 1 µM; read-out: % of control at 1 µM
ENDPOINT_LABEL: remaining activity at 1 µM
Please report the result as a number followed by the unit.

smiles_code=Cn1c(=O)n(-c2ccc(C(C)(C)C#N)cc2)c2c3cc(-c4cnc5ccccc5c4)ccc3ncc21 target="panel of 442 kinases (Homo sapiens)" obs_value=65%

Provide the reported remaining activity at 1 µM of each entry below, same order.
1. FC(F)c1nc2ccccc2n1-c1nc(N2CCOCC2)nc(N2CCOCC2)n1
2. COc1ncc(-c2ccc3nccc(-c4ccnnc4)c3c2)cc1NS(=O)(=O)c1ccc(F)cc1F
3. Nc1cc(C(F)(F)F)c(-c2cc(N3CCOCC3)nc(N3CCOCC3)n2)cn1

Response:
76%
100%
100%

* * *

biological target: panel of 442 kinases (Homo sapiens, UniProt Q02156); construct: purchased Ambit Biosciences (scanMAXX KINOMEscan); assay: biochemical; type: binding; settings: kinase PRKCE; 1 µM; read-out: PRKCE (% of control at 1 µM)
Sequence (Q02156 whole entry): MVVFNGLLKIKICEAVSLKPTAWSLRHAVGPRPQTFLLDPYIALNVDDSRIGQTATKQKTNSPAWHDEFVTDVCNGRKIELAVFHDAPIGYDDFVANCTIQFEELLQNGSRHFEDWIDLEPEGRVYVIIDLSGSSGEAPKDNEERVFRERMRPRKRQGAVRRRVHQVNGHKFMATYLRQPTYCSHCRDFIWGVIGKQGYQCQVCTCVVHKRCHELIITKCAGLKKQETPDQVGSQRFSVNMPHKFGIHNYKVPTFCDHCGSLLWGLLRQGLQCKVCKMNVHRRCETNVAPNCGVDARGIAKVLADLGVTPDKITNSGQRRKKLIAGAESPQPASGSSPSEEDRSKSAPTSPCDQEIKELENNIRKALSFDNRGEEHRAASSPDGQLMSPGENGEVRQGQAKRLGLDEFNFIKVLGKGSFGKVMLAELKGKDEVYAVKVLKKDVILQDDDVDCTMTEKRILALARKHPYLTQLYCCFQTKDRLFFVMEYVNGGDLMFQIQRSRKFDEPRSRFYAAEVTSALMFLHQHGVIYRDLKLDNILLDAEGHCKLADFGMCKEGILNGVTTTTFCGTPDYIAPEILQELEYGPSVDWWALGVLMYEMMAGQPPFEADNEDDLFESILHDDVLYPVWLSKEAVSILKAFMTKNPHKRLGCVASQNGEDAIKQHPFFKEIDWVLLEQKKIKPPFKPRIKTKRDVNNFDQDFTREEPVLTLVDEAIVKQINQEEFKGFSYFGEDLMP
Give measured remaining activity at 1 µM for each item. Keep answers brief.
Please report the result as a number followed by the unit.

Recorded results for 3 compounds are shown here.
smiles_code=Cn1c(=O)n(-c2ccc(C(C)(C)C#N)cc2)c2c3cc(-c4cnc5ccccc5c4)ccc3ncc21 target="panel of 442 kinases (Homo sapiens, UniProt Q02156)" endpoint_label="remaining activity at 1 µM" obs_value=78%
smiles_code=FC(F)c1nc2ccccc2n1-c1nc(N2CCOCC2)nc(N2CCOCC2)n1 target="panel of 442 kinases (Homo sapiens, UniProt Q02156)" endpoint_label="remaining activity at 1 µM" obs_value=100%
smiles_code=Nc1cc(C(F)(F)F)c(-c2cc(N3CCOCC3)nc(N3CCOCC3)n2)cn1 target="panel of 442 kinases (Homo sapiens, UniProt Q02156)" endpoint_label="remaining activity at 1 µM" obs_value=97%

Prompt: Return reported remaining activity at 1 µM; argument: COc1ncc(-c2ccc3nccc(-c4ccnnc4)c3c2)cc1NS(=O)(=O)c1ccc(F)cc1F
Response: 100%

* * *

molecular target: CLK1 (Homo sapiens, UniProt P49759); construct: purchased Ambit Biosciences (scanMAXX KINOMEscan); experiment: KINOMEscan, CLK1; format: binding; conditions: CLK1; 1 µM; read-out: % of control at 1 µM
Sequence (P49759 whole entry): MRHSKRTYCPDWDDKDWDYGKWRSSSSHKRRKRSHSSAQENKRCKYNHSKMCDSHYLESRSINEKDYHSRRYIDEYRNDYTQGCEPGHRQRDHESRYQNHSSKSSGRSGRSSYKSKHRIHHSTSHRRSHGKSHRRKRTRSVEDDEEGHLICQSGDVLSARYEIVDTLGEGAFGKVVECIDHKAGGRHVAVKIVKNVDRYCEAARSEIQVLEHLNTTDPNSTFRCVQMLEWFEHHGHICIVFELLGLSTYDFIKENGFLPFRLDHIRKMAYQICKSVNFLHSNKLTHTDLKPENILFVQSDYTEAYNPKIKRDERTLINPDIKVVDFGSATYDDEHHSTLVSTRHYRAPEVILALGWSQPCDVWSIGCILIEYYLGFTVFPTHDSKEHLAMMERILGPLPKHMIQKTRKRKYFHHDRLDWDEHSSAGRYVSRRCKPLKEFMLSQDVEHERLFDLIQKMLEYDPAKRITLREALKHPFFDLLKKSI
ENDPOINT_LABEL: remaining binding at 1 µM (%)
Give bare numbers, in %.

Recorded results for 3 molecules are shown here.
molecule="Cn1c(=O)n(-c2ccc(C(C)(C)C#N)cc2)c2c3cc(-c4cnc5ccccc5c4)ccc3ncc21 [Dactolisib]" obs_value=13
molecule="FC(F)c1nc2ccccc2n1-c1nc(N2CCOCC2)nc(N2CCOCC2)n1 [ZSTK474]" obs_value=100
molecule="Nc1cc(C(F)(F)F)c(-c2cc(N3CCOCC3)nc(N3CCOCC3)n2)cn1 [Buparlisib]" obs_value=42

Kindly consider the entry below.
Prompt: Return reported remaining binding at 1 µM; argument: COc1ncc(-c2ccc3nccc(-c4ccnnc4)c3c2)cc1NS(=O)(=O)c1ccc(F)cc1F [Omipalisib]
Response: 96

* * *

molecular target: panel of 442 kinases (Homo sapiens, UniProt Q8IY84); construct: purchased Ambit Biosciences (scanMAXX KINOMEscan); assay: biochemical; assay type: binding; settings: kinase NIM1; 1 µM; read-out: % of control at 1 µM
Sequence (Q8IY84 whole entry): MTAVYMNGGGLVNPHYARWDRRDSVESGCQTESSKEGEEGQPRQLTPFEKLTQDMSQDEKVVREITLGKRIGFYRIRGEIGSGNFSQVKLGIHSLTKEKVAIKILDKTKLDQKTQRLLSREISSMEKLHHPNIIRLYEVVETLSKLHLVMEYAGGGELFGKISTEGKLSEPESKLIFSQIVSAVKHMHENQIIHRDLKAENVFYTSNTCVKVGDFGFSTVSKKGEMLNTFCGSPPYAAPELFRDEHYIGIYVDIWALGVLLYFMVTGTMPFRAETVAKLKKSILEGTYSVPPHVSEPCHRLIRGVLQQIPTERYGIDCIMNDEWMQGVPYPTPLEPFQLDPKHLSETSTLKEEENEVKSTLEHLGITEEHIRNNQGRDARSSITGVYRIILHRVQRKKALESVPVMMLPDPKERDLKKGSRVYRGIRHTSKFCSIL
Give measured remaining activity at 1 µM for each item. Keep answers brief.
Give bare numbers, in %.

Recorded results for 3 compounds are shown here.
smiles_code=FC(F)c1nc2ccccc2n1-c1nc(N2CCOCC2)nc(N2CCOCC2)n1 obs_value=100
smiles_code=COc1ncc(-c2ccc3nccc(-c4ccnnc4)c3c2)cc1NS(=O)(=O)c1ccc(F)cc1F obs_value=100
smiles_code=Cn1c(=O)n(-c2ccc(C(C)(C)C#N)cc2)c2c3cc(-c4cnc5ccccc5c4)ccc3ncc21 obs_value=100

Prompt: Return reported remaining activity at 1 µM; argument: Nc1cc(C(F)(F)F)c(-c2cc(N3CCOCC3)nc(N3CCOCC3)n2)cn1
Response: 89

* * *

biological target: panel of 442 kinases (Homo sapiens, UniProt Q15759); construct: purchased Ambit Biosciences (scanMAXX KINOMEscan); assay: biochemical; assay type: binding; settings: kinase p38-beta; 1 µM; read-out: % of control at 1 µM
Sequence (Q15759 whole entry): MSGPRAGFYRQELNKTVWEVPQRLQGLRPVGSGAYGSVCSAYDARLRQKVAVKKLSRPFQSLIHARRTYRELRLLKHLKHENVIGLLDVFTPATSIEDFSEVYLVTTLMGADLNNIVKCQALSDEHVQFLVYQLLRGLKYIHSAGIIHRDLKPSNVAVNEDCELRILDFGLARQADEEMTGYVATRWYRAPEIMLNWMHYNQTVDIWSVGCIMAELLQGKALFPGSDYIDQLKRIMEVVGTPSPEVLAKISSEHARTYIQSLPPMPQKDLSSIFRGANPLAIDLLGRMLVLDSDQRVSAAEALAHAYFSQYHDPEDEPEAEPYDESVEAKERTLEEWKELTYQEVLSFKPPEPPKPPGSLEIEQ
ENDPOINT_LABEL: remaining activity at 1 µM
Please report the result as a number followed by the unit.

Provide the reported remaining activity at 1 µM of each entry below, same order.
1. FC(F)c1nc2ccccc2n1-c1nc(N2CCOCC2)nc(N2CCOCC2)n1
2. Nc1cc(C(F)(F)F)c(-c2cc(N3CCOCC3)nc(N3CCOCC3)n2)cn1
3. COc1ncc(-c2ccc3nccc(-c4ccnnc4)c3c2)cc1NS(=O)(=O)c1ccc(F)cc1F
4. Cn1c(=O)n(-c2ccc(C(C)(C)C#N)cc2)c2c3cc(-c4cnc5ccccc5c4)ccc3ncc21

Response:
70%
99%
100%
99%

* * *

molecular target: panel of 442 kinases (Homo sapiens, UniProt P00533, G719S); construct: purchased Ambit Biosciences (scanMAXX KINOMEscan); assay: biochemical; assay type: binding; details: EGFR(G719S); 1 µM; read-out: % of control at 1 µM
Sequence (P00533 25-1210 G719S): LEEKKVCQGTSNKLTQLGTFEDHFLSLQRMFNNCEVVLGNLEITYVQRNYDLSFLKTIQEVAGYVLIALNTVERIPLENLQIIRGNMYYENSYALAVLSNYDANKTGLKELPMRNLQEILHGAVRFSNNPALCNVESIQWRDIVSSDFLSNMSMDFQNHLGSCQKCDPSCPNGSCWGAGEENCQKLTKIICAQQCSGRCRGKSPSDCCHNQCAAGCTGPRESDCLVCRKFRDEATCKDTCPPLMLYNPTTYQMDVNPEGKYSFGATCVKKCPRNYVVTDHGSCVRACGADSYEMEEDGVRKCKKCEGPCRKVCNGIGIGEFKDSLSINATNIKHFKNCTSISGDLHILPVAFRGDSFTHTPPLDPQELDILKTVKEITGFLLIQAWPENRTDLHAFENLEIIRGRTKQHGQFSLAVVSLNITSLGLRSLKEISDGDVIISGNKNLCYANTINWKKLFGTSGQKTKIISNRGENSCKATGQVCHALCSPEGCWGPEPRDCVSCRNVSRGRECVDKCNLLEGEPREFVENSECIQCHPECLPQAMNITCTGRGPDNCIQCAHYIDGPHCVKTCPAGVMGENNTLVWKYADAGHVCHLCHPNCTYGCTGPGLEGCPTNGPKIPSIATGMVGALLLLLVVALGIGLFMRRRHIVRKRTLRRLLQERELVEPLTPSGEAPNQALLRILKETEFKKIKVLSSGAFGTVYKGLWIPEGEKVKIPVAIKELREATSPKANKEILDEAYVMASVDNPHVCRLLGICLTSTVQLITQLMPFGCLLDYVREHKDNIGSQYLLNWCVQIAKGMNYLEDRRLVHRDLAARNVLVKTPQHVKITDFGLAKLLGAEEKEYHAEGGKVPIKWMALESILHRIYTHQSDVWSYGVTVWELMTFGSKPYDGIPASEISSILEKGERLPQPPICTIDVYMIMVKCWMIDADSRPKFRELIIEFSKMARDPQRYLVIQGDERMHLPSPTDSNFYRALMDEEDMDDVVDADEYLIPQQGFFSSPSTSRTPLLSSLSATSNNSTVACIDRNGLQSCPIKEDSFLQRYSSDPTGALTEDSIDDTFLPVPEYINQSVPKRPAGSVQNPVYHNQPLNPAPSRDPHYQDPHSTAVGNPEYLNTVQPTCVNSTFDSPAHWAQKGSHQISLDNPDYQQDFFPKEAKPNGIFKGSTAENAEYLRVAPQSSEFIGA
ENDPOINT_LABEL: remaining activity at 1 µM
Please report the result as a number followed by the unit.

Recorded results for 3 molecules are shown here.
smiles_code=FC(F)c1nc2ccccc2n1-c1nc(N2CCOCC2)nc(N2CCOCC2)n1 endpoint_label="remaining activity at 1 µM" obs_value=100%
smiles_code=Nc1cc(C(F)(F)F)c(-c2cc(N3CCOCC3)nc(N3CCOCC3)n2)cn1 endpoint_label="remaining activity at 1 µM" obs_value=100%
smiles_code=Cn1c(=O)n(-c2ccc(C(C)(C)C#N)cc2)c2c3cc(-c4cnc5ccccc5c4)ccc3ncc21 endpoint_label="remaining activity at 1 µM" obs_value=99%

Kindly consider the entry below.
Prompt: Return reported remaining activity at 1 µM; argument: COc1ncc(-c2ccc3nccc(-c4ccnnc4)c3c2)cc1NS(=O)(=O)c1ccc(F)cc1F
Response: 78%
